Origin of the recorded values: patent US4711885A

# Test system: mice
# assay info: four plates test according to Aron et al. (anxiolytic activity, number of shocks received)
# Type: in vivo
# run parameters: 10 mg/kg i.p., mice, N = 10
measure: % number of shocks received

Task: Given FC(F)(F)c1cccc(N2CCN(CCc3nnc4n3C[C@H]3CCCC[C@H]3C4)CC2)c1 (relative stereo) , report its % number of shocks received on mice.
Result: +32%

Task: Given FC(F)(F)c1cccc(N2CCN(CCc3nnc4n3CC3CCCC43)CC2)c1 (stereo not drawn) [Example 17b] , report its % number of shocks received on mice.
Result: +53%

Task: Given Clc1cccc(N2CCN(CCc3nnc4n3[C@H]3CCCC[C@@H]3CC4)CC2)c1 (relative stereo) , report its % number of shocks received on mice.
Result: +20%

Task: Given FC(F)(F)c1cccc(N2CCN(CCc3nnc4n3CC3CCCC43)CC2)c1 (stereo not drawn) [Example 17a] , report its % number of shocks received on mice.
Result: +35%

Task: Given FC(F)(F)c1cccc(N2CCN(CCc3nnc4n3CC3CCCCC43)CC2)c1 (stereo not drawn) , report its % number of shocks received on mice.
Result: -4%

Task: Given FC(F)(F)c1cccc(N2CCN(CCCc3nnc4n3C[C@H]3CCCC[C@H]3C4)CC2)c1 (relative stereo) , report its % number of shocks received on mice.
Result: +48%

---

# System: mice
# assay info: four plates test according to Aron et al. (anxiolytic activity, number of shocks received)
# Assay type: in vivo
# run parameters: 5 mg/kg i.p., mice, N = 10
# From the text: The anxiolytic activity was studied, for its part, by means of the four plates test according to Aron C., Simon P., Larousse C. and Boissier J. R., Neuropharmacology, 10, 459-469, (1971), the conflict test according to Vogel J. R., Beer B., Clody D. E., Physchopharmacol.
Each entry below carries its reported % number of shocks received.

[
  {
    "compound": "FC(F)(F)c1cccc(N2CCN(CCc3nnc4n3CC3CCCCC43)CC2)c1 (stereo not drawn)",
    "target desc": "mice",
    "% number of shocks received": "-4%"
  },
  {
    "compound": "FC(F)(F)c1cccc(N2CCN(CCc3nnc4n3CC3CCCC43)CC2)c1 (stereo not drawn) [Example 17a]",
    "target desc": "mice",
    "% number of shocks received": "+26%"
  },
  {
    "compound": "Clc1cccc(N2CCN(CCc3nnc4n3[C@H]3CCCC[C@@H]3CC4)CC2)c1 (relative stereo)",
    "target desc": "mice",
    "% number of shocks received": "+15%"
  },
  {
    "compound": "FC(F)(F)c1cccc(N2CCN(CCc3nnc4n3C[C@H]3CCCC[C@H]3C4)CC2)c1 (relative stereo)",
    "target desc": "mice",
    "% number of shocks received": "+2%"
  },
  {
    "compound": "FC(F)(F)c1cccc(N2CCN(CCc3nnc4n3CC3CCCC43)CC2)c1 (stereo not drawn) [Example 17b]",
    "target desc": "mice",
    "% number of shocks received": "+34%"
  }
]

// next item, % number of shocks received requested
Task: Given FC(F)(F)c1cccc(N2CCN(CCCc3nnc4n3C[C@H]3CCCC[C@H]3C4)CC2)c1 (relative stereo) , report its % number of shocks received on mice.
Result: +44%
